- target or test system: EGFR L858R/T790M (Homo sapiens, UniProt P00533, L858R/T790M)
- Construct: purchased Carna Bio
- Sequence (P00533 25-1210 T790M/L858R): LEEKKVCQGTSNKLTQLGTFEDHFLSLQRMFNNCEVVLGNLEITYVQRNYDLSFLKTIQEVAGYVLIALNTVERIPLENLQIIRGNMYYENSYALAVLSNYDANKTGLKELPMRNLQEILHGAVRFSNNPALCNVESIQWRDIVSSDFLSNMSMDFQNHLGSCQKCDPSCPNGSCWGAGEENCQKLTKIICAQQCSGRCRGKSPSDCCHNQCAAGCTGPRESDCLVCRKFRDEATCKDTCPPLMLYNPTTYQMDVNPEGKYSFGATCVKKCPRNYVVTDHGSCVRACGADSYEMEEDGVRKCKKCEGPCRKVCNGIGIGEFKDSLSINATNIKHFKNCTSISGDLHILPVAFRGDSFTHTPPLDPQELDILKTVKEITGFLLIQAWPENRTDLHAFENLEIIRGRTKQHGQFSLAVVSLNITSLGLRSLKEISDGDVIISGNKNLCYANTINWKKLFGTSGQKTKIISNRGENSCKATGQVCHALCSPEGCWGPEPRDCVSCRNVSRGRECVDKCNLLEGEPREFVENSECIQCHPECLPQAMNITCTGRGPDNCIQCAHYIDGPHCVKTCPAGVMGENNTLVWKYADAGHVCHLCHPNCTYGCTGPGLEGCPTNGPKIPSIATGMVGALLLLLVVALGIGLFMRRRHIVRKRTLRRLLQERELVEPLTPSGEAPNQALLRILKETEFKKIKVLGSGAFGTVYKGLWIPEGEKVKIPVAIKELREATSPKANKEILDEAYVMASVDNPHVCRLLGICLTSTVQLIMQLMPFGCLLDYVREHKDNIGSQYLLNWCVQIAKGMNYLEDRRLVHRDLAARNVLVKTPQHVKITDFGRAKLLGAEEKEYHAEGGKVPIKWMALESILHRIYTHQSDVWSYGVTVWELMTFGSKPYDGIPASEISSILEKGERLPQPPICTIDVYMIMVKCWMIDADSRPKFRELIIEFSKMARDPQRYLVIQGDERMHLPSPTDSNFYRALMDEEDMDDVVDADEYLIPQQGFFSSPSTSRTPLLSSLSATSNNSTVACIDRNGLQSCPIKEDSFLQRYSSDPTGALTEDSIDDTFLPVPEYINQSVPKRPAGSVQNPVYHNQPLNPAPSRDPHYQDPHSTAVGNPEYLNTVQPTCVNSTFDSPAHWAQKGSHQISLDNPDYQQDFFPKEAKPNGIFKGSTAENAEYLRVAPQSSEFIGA
- measurement protocol: Inhibition of EGFR L858R/T790M biochemical enzymatic activity (HTRF)
- measurement context: EGFR L858R-T790M, 1 mM ATP, 1 h, room temperature, read-out: IC50 (nM) @L858R-T790M
parameter measured: IC50 (nM)

Here's what some known entries look like.
>  <molecule>
Cc1cc2cc(n1)-c1cnn(C3CC3)c1OCCN(CC(F)(F)F)CCn1c(nc3ccccc31)NC2=O [Example B6]

>  <target or test system>
EGFR L858R/T790M (Homo sapiens, UniProt P00533, L858R/T790M)

>  <IC50 (nM)>
9

$$$$
>  <molecule>
Cn1ncc2c1OCCN1CC3CCC(CC3)(C1)n1c(nc3ccccc31)NC(=O)c1cc-2c(=O)n(C)c1 [Example A100]

>  <target or test system>
EGFR L858R/T790M (Homo sapiens, UniProt P00533, L858R/T790M)

>  <IC50 (nM)>
3520

$$$$
>  <molecule>
CN(C)CC1(F)CN(c2ccc3nc4n(c3c2)C23CCC(CN(CCOc5c(cnn5C)-c5cc(cn(C)c5=O)C(=O)N4)C2)C3)C1 (single isomer, unassigned) [Example A72B]

>  <target or test system>
EGFR L858R/T790M (Homo sapiens, UniProt P00533, L858R/T790M)

>  <IC50 (nM)>
1.8

$$$$
>  <molecule>
CN(C)C1CCN(c2ccc3nc4n(c3c2)C23CCC(CN(CCOc5c(cnn5C)-c5cc(cn(C)c5=O)C(=O)N4)C2)C3)CC1 (single isomer, unassigned) [Example A64B]

>  <target or test system>
EGFR L858R/T790M (Homo sapiens, UniProt P00533, L858R/T790M)

>  <IC50 (nM)>
2

$$$$
>  <molecule>
CN1CCOC2(C1)CN(c1ccc3nc4n(c3c1)C13CCC(CN(CCOc5c(cnn5C)-c5cc(cn(C)c5=O)C(=O)N4)C1)C3)C2 (single isomer, unassigned) [Example A86B]

>  <target or test system>
EGFR L858R/T790M (Homo sapiens, UniProt P00533, L858R/T790M)

>  <IC50 (nM)>
12

$$$$

A. CN1CCN(c2ccc3nc4n(c3c2)C23CCC(CC2)CN(CCOc2c(cnn2C)-c2cc(cn(C)c2=O)C(=O)N4)C3)CC1 [Example A75]
B. Cn1ncc2c1OCCN1CC3CCC(C3)(C1)n1c(nc3ccc(N4CCC(N5CC(F)C5)C4)cc31)NC(=O)c1cc-2c(=O)n(C)c1 (single isomer, unassigned) [Example A94B1]
**Q:** Sort A and B by IC50 descending and give the first. Pick one and reply with its label.
**A:** B

P. Cn1ncc2c1OCCN1CC3CCC(C3)(C1)n1c(nc3ccc(N4CCOCC4)cc31)NC(=O)c1cc-2c(=O)n(C)c1 (stereo not shown) [Example A62]
Q. C[C@@H]1CCCOc2c(cnn2C)-c2cc(cn(C)c2=O)C(=O)Nc2nc3ccc(Br)cc3n2C1 [Example M3]
**Q:** Sort P and Q by IC50 descending and give the first. Pick one and reply with its label.
**A:** Q
(Q: 2190 nM, P: 7.6 nM)

P. CN(C)CCC1CN(c2ccc3nc4n(c3c2)C23CCC(CN(CCOc5c(cnn5C)-c5cc(cn(C)c5=O)C(=O)N4)C2)C3)C1 (single isomer, unassigned) [Example A95B]
Q. CN1CCC2(CCN(c3ccc4nc5n(c4c3)C34CCC(CN(CCOc6c(cnn6C)-c6cc(cn(C)c6=O)C(=O)N5)C3)C4)CC2)C1 (single isomer, unassigned) [Example A82B]
**Q:** Sort P and Q by IC50 descending and give the first. Pick one and reply with its label.
**A:** P
